B1: mNeonGreen-tagged T-bet DNA binding domain (aa 135-326), wild type [mouse] / mTagBFP-tagged GATA3 DNA binding domain (aa 259-369) [not stated] (parent complex)
chain 1: KLRVALSNHLLWSKFNQHQTEMIITKQGRRMFPFLSFTVAGLEPTSHYRMFVDVVLVDQHHWRYQSGKWVQCGKAEGSMPGNRLYVHPDSPNTGAHWMRQEVSFGKLKLTNNKGASNNVTQMIVLQSLHKYQPRLHIVEVNDGEPEAACSASNTHVFTFQETQFIAVTAYQNAEITQLKIDNNPFAKGFREN
chain 2: not shown

Variants of: B1
measurementDescription: flow-cytometric FRET; HEK293T cells; parent: 0.036; read off a plot
measuredMetric: response

[[record]]
mutation = "chain 1 R190W"
measuredmetric = "response"
assayvalue = "~-0.001 DFRET"

[[record]]
mutation = "chain 1 I123E"
measuredmetric = "response"
assayvalue = "~-0.001 DFRET"

[[record]]
mutation = "chain 1 R29A, chain 1 R30A"
measuredmetric = "response"
assayvalue = "~-0.004 DFRET"

[[record]]
mutation = "chain 1 Q126A"
measuredmetric = "response"
assayvalue = "~0.031 DFRET"

[[record]]
mutation = "chain 1 E76A"
measuredmetric = "response"
assayvalue = "~0.043 DFRET"

[[record]]
mutation = "chain 1 K113L"
measuredmetric = "response"
assayvalue = "~0.041 DFRET"

[[record]]
mutation = "chain 1 K26A"
measuredmetric = "response"
assayvalue = "~0.018 DFRET"

[[record]]
mutation = "chain 1 V124W"
measuredmetric = "response"
assayvalue = "~0.025 DFRET"

